Experiment: AP1 Signaling Pathway (AID 357);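 further: ME-180 reporter cells stimulated with EGF at its EC50 level; on the % scale 0 is the no-effect control and ±100 the full control effect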
Conditions: ME-180 (cervical carcinoma) AP-1-bla reporter, EGF-induced, beta-lactamase ratio, 5 h; at 7.69 µM (top of the series) unless noted
Inconclusive results are not listed. The source made the active and inactive calls. The call rests on the fitted dose curve; in most records, active means well fitted curve in either direction with a large enough effect (not every such curve was filed as active); inconclusive means small, poorly fitted or top-dose-only effect, or another doubt; inactive means flat fitted curve, though single readings scatter.
Record form. Attribute: activity change, negative = inhibition. Fill in for each entry.

Some molecules with known activity change, negative = inhibition results, for comparison:
COc1ccccc1CNc1ncncc1-c1ccc2c(c1)OCO2	-21.5% (inactive)
O=c1c(CCc2ccccc2)nc2cnc(N3CCOCC3)nc2n1-c1ccccc1	1.07% (inactive)
O=c1c(-c2cccc(F)c2)nc2cncnc2n1Cc1ccc(F)cc1	-9.74% (inactive)
CCNc1ncc2nc(-c3ccc(OC)cc3)c(=O)n(C)c2n1	22.4% (inactive)

Report activity change, negative = inhibition for each item below.
1. O=C(c1ccco1)N1CCC2(CC1)CN(c1cccc(-c3ccccc3)c1)C2
2. CN(C)C(=O)c1ccc(-c2cc(NCc3ccccc3)ncn2)cc1
3. CN(Cc1ccco1)c1nc(-c2ccccc2C(F)(F)F)nc2ccccc12
4. Cc1cnc(CNc2ncnc3ccc(-c4ccccc4Cl)cc23)cn1

A)
1. -23.1% (inactive)
2. -9.2% (inactive)
3. 23.8% (inactive)
4. 14.6% (inactive)

Report activity change, negative = inhibition for each item below.
1. O=c1cnc2cnc(OCc3ccccc3)nc2n1CCc1ccccc1
2. O=S(=O)(O)C1CCNCC1
3. Cc1nc2cnc(OCc3ccccc3)nc2n(CCc2ccccc2)c1=O
4. O=c1c(-c2ccccc2)nc2cncnc2n1Cc1ccccc1
5. COc1ccc2[nH]cc(CCNc3cc(-c4cccc(C#N)c4)ncn3)c2c1

A)
["-5.47% (inactive)", "5.14% [at 38 µM] (inactive)", "2.1% (inactive)", "-16.6% (inactive)", "-15.9% (inactive)"]

Report activity change, negative = inhibition for each item below.
1. CCc1c(C)c(C#N)c2nc3ccccc3n2c1-n1nc(C)cc1C
2. COCCn1c(=O)c(CCc2ccccc2)nc2cnc(OCc3ccccc3)nc21
3. CN(Cc1ccco1)c1cc(-c2ccc3c(c2)OCO3)ncn1
4. O=C(O)CC1Sc2nc3ccccc3n2C1=O (configuration not stated)
5. N#Cc1cccc(-c2nc(NCCN3CCOCC3)c3ccccc3n2)c1
6. COC(=O)c1cc(Br)c(=O)n(CCc2ccc(F)cc2)c1
7. COc1cccc(Cn2c(=O)c(CCc3ccccc3)nc3cnc(N(C)C)nc32)c1
8. COc1cccc(Nc2ncc3ncc(=O)n(CCC#N)c3n2)c1

A)
["-8.93% [at 17.2 µM] (inactive)", "-21.6% (inactive)", "-0.29% (inactive)", "12.1% [at 17.2 µM] (inactive)", "-13% (inactive)", "4.29% [at 17.2 µM] (inactive)", "-2.39% (inactive)", "-26.1% (inactive)"]

Q) Suppose we examine the molecule COc1ccc(-n2c(=O)c(-c3cccs3)nc3cnc(N4CCN(C)CC4)nc32)cc1 ; what activity change, negative = inhibition value has been reported?
A) 8.48% (inactive)
